// molecules with reported IC50 on UniProtKB P07949, multi-publication
Parameter: IC50

1) COc1ccc2[nH]c(-c3n[nH]c4ncc(-c5cncc(CNC(C)C)c5)cc34)nc2c1: ~1000 nM
2) CCOc1cc(-c2ccc(NC(=O)Nc3ccc(OCC(C)O)c(C(F)(F)F)c3)c(F)c2)c[nH]c1=O (centres unmarked): < 100 nM
3) O=C(c1ccccc1O)c1c[nH]c2ncc(-c3cccs3)cc12: ≤ 10000 nM
4) CCOc1cc(-c2ccc(NC(=O)Nc3ccc(OC4(C)COC4)c(C(F)(F)F)c3)cc2)c[nH]c1=O: < 100 nM
5) Cc1cc(Nc2cc(C)[nH]n2)nc(N2CCC(C)(C(=O)NCc3ccc(-n4cccn4)nc3)CC2)n1: < 10 nM
6) COc1ccc(CN2C3CC2CN(c2ccc(-c4cc(C5=CCOC(C)(C)C5)cn5ncc(C#N)c45)cn2)C3)cn1: 1.73 nM
7) O=C(c1cccc(Cl)c1Cl)c1c[nH]c2ncc(-c3cccnc3)cc12: ≤ 10000 nM
8) Cc1cc(Nc2cc(C(F)F)cc(N3CC(F)(C(=O)NCc4ccc(-n5cc(F)cn5)nc4)C3)n2)n[nH]1: < 10 nM

----------
pIC50: −log10 of the molar value.
// compounds with reported pIC50 on Proto-oncogene tyrosine-protein kinase receptor Ret (Homo sapiens), multi-publication
Parameter: pIC50

1. COc1ccc(CN2[C@@H]3CC[C@H]2[C@H]2CN(c4ccc(-c5cc(OCC(C)(C)O)cn6ncc(C#N)c56)cn4)C[C@H]23)cn1: 7.30 to 8.00
2. CCOc1ccc([C@H](C)NC(=O)c2ncc(-c3nc(C)cc(Nc4cc(C)[nH]n4)n3)cc2C)cc1: < 7.00
3. CCOc1cc(=O)[nH]cc1-c1ncc(NC(=O)Nc2cc(-n3cnc(C)c3)cc(C(F)(F)F)c2)c(C)n1: > 7.00
4. COCc1cccc2[nH]c(-c3n[nH]c4ncc(-c5ccc(OC)nc5)cc34)nc12: < 4.00
5. COc1ccc(C(C)N2C[C@H]3CN(c4cnc(-c5cc(OCC(C)(C)O)cn6ncc(C#N)c56)cn4)C[C@H]3C2)cn1 (some centres unmarked): 7.00 to 7.30
6. Nc1cccc(C(=O)c2c[nH]c3ncccc23)c1: ≥ 5.00
7. Cc1cc(Nc2cc(C)[nH]n2)nc(N2CCC(C(=O)NCc3ccc(-n4cccn4)nc3)CC2)n1: > 8.00
8. CC(C)(C)c1cc(NC(=O)Nc2ccc(Oc3ncnc4[nH]ncc34)cc2)on1: > 5.00

----------
// molecules with reported pIC50 on Proto-oncogene tyrosine-protein kinase receptor Ret (Homo sapiens, UniProt P07949), multi-publication
pIC50: −log10 of the molar value.
Parameter: pIC50

1. Oc1ncc(F)c(Cc2c[nH]c3ncc(-c4ccsc4)cc23)c1F: ≥ 5.00
2. CCOc1cc(-c2ccc(NC(=O)Nc3ccc(OC4(CO)CCC4)c(C(F)(F)F)c3)c(F)c2)c[nH]c1=O: > 7.00
3. CCOC(=O)c1cncc(-c2cnc3[nH]nc(-c4nc5c(COC)cccc5[nH]4)c3c2)c1: < 4.00
4. COc1cc2nccc(Oc3c(F)cc(NC(=O)NC4CC4)c(Cl)c3F)c2cc1C(=O)NC[C@@H](O)CO: 8.00 to 8.30
5. CC(C)(O)c1ccc(-c2cc(-c3ccc(N4C5CC6CC4CC(NC(=O)c4ncccc4Cl)(C6)C5)nc3)c3c(C#N)cnn3c2)nc1: 8.77
6. CCOc1cc(=O)[nH]cc1-c1ncc(NC(=O)Nc2ccc(C(C)C#N)c(C(F)(F)F)c2)c(C)n1 (stereo not shown): > 7.00
7. COC1(C(=O)NCc2ccc(-n3ccc(C4CC4)n3)nc2)CN(c2nc(C)cc(Nc3cc(C)[nH]n3)n2)C1: > 8.00

----------
// compounds with reported IC50 on Proto-oncogene tyrosine-protein kinase receptor Ret (Homo sapiens), multi-publication
Parameter: IC50

1) COC1(C(=O)N[C@@H](C)c2ccc(-n3cccn3)nc2)CCN(c2nc(Nc3cc(C)[nH]n3)cc(C)c2C#N)CC1: < 0.01 µM
2) Cn1cc(-c2cc(-c3ccc(N4C[C@@H]5[C@H](C4)[C@@H]5NC(=O)c4ncccc4Cl)nc3)c3c(C#N)cnn3c2)cn1: ≤ 0.01 µM
3) CCCS(=O)(=O)Nc1ccc(F)c(C(=O)c2c[nH]c3ncc(-c4cccnc4)cc23)c1F: ≤ 10 µM
4) COC(=O)c1cccc2[nH]c(-c3n[nH]c4ncc(-c5cncc6ccccc56)cc34)nc12: > 100 µM
5) CCOc1cc(-c2ccc(NC(=O)Nc3ccc(C(C)C#N)c(C(F)(F)F)c3)c(F)c2)c[nH]c1=O (stereo not shown): < 0.1 µM
6) Cc1ccc(F)cc1C(=O)c1c[nH]c2nccc(-c3ccc(C(N)=O)cc3)c12: ≤ 10 µM
7) NC(=O)c1cccc(-c2ccnc3[nH]cc(C(=O)c4cccc(Cl)c4Cl)c23)c1: ≤ 10 µM

----------
// compounds with reported IC50 on Proto-oncogene tyrosine-protein kinase receptor Ret (Homo sapiens, UniProt P07949), multi-publication
Parameter: IC50

1. CCOc1cc(-c2ncc(NC(=O)Nc3ccc(C(C)N(C)C)c(C(F)(F)F)c3)c(C)n2)c[nH]c1=O (stereo not drawn): < 100 nM
2. Cn1cc(-c2cc(-c3cnc(N4C[C@@H]5[C@H](C4)[C@H]5NC(=O)c4ncccc4Cl)cn3)c3c(C#N)cnn3c2)cn1: ≤ 10 nM
3. CNCc1cncc(-c2cnc3[nH]nc(-c4nc5c(COC)cccc5[nH]4)c3c2)c1C: ~10000 nM
4. COc1cccc(Cc2c[nH]c3ncc(-c4ccc(N)cc4)cc23)c1: ≤ 10000 nM
5. CCOc1cc(-c2ccc(CC(=O)Nc3ccc(C(N)=O)c(C(F)(F)F)c3)c(F)c2)c[nH]c1=O: 100 to 500 nM
6. Cc1ccc(C(=O)Nc2cccc(C(F)(F)F)c2)cc1C#Cc1cnc2c(Nc3cnn(C)c3)ccnn12: 0.49 nM
7. Cn1ccc(-c2cc(-c3ccc(N4C[C@@H]5[C@H](C4)[C@H]5NC(=O)c4ncccc4Cl)nc3)c3c(C#N)cnn3c2)n1: ≤ 10 nM
8. CC(=O)Nc1cccc(-c2ccnc3[nH]cc(C(=O)c4ccccc4F)c23)c1: ≤ 10000 nM
9. Cc1cc(Nc2cc(C)[nH]n2)nc(C2(O)CCC(C(=O)N[C@@H](C)c3cnc(-n4cc(F)cn4)cn3)C2)c1 (mixture of isomers): < 10 nM
10. O=C(c1cc(F)ccc1F)c1c[nH]c2ncc(-c3cccnc3)cc12: ≤ 10000 nM
11. O=C(c1cccc(O)c1)c1c[nH]c2nccc(-c3cc(F)cc(F)c3)c12: ≤ 10000 nM
12. CC1(Oc2ccc(NC(=O)Nc3ccc(-c4c[nH]c(=O)c(F)c4)cc3F)cc2C(F)(F)F)COC1: < 100 nM
13. Nc1ccc(F)c(C(=O)c2c[nH]c3ncc(-c4cccnc4)cc23)c1F: ≤ 10000 nM
14. CO[C@@]1(C(=O)N[C@@H](C)c2ccc(-n3cc(F)cn3)nc2)CN(c2nc(C)cc(Nc3cc(C)[nH]n3)n2)[C@@H]1C: < 10 nM
15. CC(C)(O)C#Cc1cc(-c2ccc(N3CCC(C)(NC(=O)c4ncccc4Cl)CC3)nc2)c2c(C#N)cnn2c1: 0.38 nM

----------
// compounds with reported IC50 on Proto-oncogene tyrosine-protein kinase receptor Ret (Homo sapiens, UniProt P07949), multi-publication
Parameter: IC50

1. COC1(C(=O)NCc2ccc(-n3cccn3)nc2)CCN(c2nc(C)cc(Nc3cc(C)[nH]n3)n2)CC1: < 10 nM
2. CS(=O)(=O)Nc1ccc(F)c(C(=O)c2c[nH]c3ncccc23)c1F: ≤ 10000 nM
3. CC(=O)Nc1cccc(-c2cnc3[nH]cc(C(=O)c4ccccc4F)c3c2)c1: ≤ 10000 nM
4. COCCOCCOCCOCCOCCOCCOCCOCCNC(=O)c1c(C)[nH]c(/C=C2\C(=O)Nc3ccc(F)cc32)c1C: 990 nM
5. O=C(c1cc(O)ccc1F)c1c[nH]c2ncc(-c3ccsc3)cc12: ≤ 10000 nM
6. c1ccc2c(-c3cnc4[nH]nc(-c5nc6c(CN7CCOCC7)cccc6[nH]5)c4c3)cncc2c1: ~10000 nM
7. Cn1cc(-c2cc(-c3cnc(N4C5CC6CC4CC(NC=O)(C6)C5)cn3)c3c(C#N)cnn3c2)cn1: ≤ 10 nM
8. Cc1cc(-c2ccc(NC(=O)Nc3ccc(OC4(C)COC4)c(C(F)(F)F)c3)c(F)c2)c[nH]c1=O: < 100 nM
9. COC1(C(=O)NCc2ccc(-n3cccn3)nc2)CN(c2nc(Nc3cc(C)[nH]n3)cc(C)c2F)C1: < 10 nM
10. COc1ccc(F)c(C(=O)c2c[nH]c3ncc(-c4ccccc4)cc23)c1: ≤ 10000 nM
11. COCc1cccc2[nH]c(-c3n[nH]c4ncc(-c5cncc(OC)c5)cc34)nc12: > 100000 nM
12. CCOc1cc(-c2ccc(NC(=O)Nc3ccc(Cl)c(Cl)c3)c(F)c2)c[nH]c1=O: < 100 nM
13. CO[C@]1(C(=O)N[C@@H](C)c2ccc(-n3cc(F)cn3)nc2)CC[C@@H](c2nc(Nc3cc(C)[nH]n3)cc(C)c2C#N)CC1: 180 nM
14. CCOc1cc(-c2ccc(NC(=O)Nc3ccc(OC4(CO)CC4)c(C(F)(F)F)c3)c(F)c2)c[nH]c1=O: < 100 nM
15. CCOc1cc(-c2ccc(NC(=O)Nc3ccc(OC4(C)COC4)c(C(F)(F)F)c3)c(F)c2)c[nH]c1=O: < 100 nM
